Hey, just so you know, these numbers are from patent US11840686B2.

Test system: human PKK mRNA
TEST_NAME: Antisense inhibition of human PKK mRNA in HepaRG cells, 1,000 nM, MOE/deoxy/cEt oligonucleotides (Example 3)
Type: cell-based
CONDITION_DETAILS: HepaRG cells, electroporation with 1,000 nM antisense oligonucleotide, approx. 24 hours, PKK mRNA by RT-PCR (RTS3454), relative to untreated control cells; Table 26 experiment
Strand notation (5' to 3'): a small letter for the sugar, then the base; units joined by * are phosphorothioate-linked, units joined directly phosphodiester-linked; [ ] holds rarer units or linkages, { } end groups; capitals alone tell only the bases. e = 2'-O-(2-methoxyethyl) (MOE); k = constrained ethyl (cEt); [5mC] = 5-methylcytosine; d = 2'-deoxy (DNA)
QUANTITY: % inhibition (%)
# value in %; strip the unit string

548248 (antisense eT*eG*k[5mC]*dG*dA*dT*dT*dT*dT*d[5mC]*d[5mC]*dA*dT*kG*k[5mC]*eA) [compound 548248]	13

Input line: Find the recorded % inhibition belonging to 548245 (e[5mC]*e[5mC]*kA*dT*dG*d[5mC]*dA*dT*dA*d[5mC]*dT*d[5mC]*dG*k[5mC]*k[5mC]*eT; antisense) [compound 548245] and report it.
Output line: 31

Input line: # repeat for 548296 (eA*e[5mC]*k[5mC]*dA*dA*d[5mC]*dA*dA*d[5mC]*dT*d[5mC]*dA*dG*kG*k[5mC]*e[5mC]; antisense) [compound 548296]
Output line: 34

Input line: # repeat for 548299 (e[5mC]*eA*kT*dT*dG*dT*dG*d[5mC]*dT*d[5mC]*dA*dA*d[5mC]*kT*kG*eA; antisense) [compound 548299]
Output line: 35

Input line: # repeat for 548250 (antisense e[5mC]*eT*kT*dT*dG*dT*dG*dA*dT*dG*d[5mC]*dG*dA*kT*kT*eT) [compound 548250]
Output line: 0

Input line: # repeat for 548279 (antisense e[5mC]*eA*k[5mC]*d[5mC]*dT*dA*dG*dA*dA*d[5mC]*dT*dA*dT*k[5mC]*k[5mC]*eA) [compound 548279]
Output line: 39

Input line: # repeat for 548264 (antisense e[5mC]*eA*kG*dT*d[5mC]*d[5mC]*dA*dA*dA*dA*dA*dT*d[5mC]*k[5mC]*k[5mC]*eT) [compound 548264]
Output line: 60

---

Test system: human PKK mRNA
TEST_NAME: Antisense inhibition of human PKK mRNA in HepaRG cells, 3,000 nM (Example 1)
Type: cell-based
CONDITION_DETAILS: Table 3; HepaRG cells, electroporation with 3,000 nM antisense oligonucleotide, approx. 24 hours; PKK mRNA by RT-PCR (RTS3454), relative to untreated control cells
Strand notation (5' to 3'): a small letter for the sugar, then the base; units joined by * are phosphorothioate-linked, units joined directly phosphodiester-linked; [ ] holds rarer units or linkages, { } end groups; capitals alone tell only the bases. e = 2'-O-(2-methoxyethyl) (MOE); [5mC] = 5-methylcytosine; d = 2'-deoxy (DNA)
I would appreciate it if you labelled entries YES when % inhibition is 20% or higher, otherwise NO.

Use the examples below as a reference point.
531141 (antisense eT*eG*e[5mC]*eA*eA*dG*dG*d[5mC]*dA*dT*dG*dT*dG*dT*dG*e[5mC]*eA*e[5mC]*eA*eA) [compound 531141]	YES
531128 (antisense eA*eA*eG*eT*eT*d[5mC]*d[5mC]*dA*d[5mC]*d[5mC]*dT*dT*d[5mC]*dT*dA*eA*e[5mC]*eT*eG*eG) [compound 531128]	NO
531115 (antisense eT*e[5mC]*e[5mC]*eT*eA*dA*dA*dT*dA*dG*dG*dA*dA*d[5mC]*dA*eA*eA*eG*eT*eA) [compound 531115]	NO
531136 (antisense eT*eA*eA*e[5mC]*eA*dT*dT*dT*d[5mC]*dT*dA*dT*dG*dG*dG*e[5mC]*e[5mC]*eT*eG*eA) [compound 531136]	NO
531125 (antisense eA*e[5mC]*eT*e[5mC]*eG*d[5mC]*d[5mC]*dT*dT*dT*dG*dT*dG*dA*d[5mC]*eT*e[5mC]*eG*eA*eT) [compound 531125]	YES

Consider now this further substance.
Input line: Is it the case that 531133 (antisense eT*eT*eT*eT*eG*dT*dT*dG*dT*dG*d[5mC]*dA*dG*dA*d[5mC]*eT*eG*eA*eA*eA) [compound 531133] has % inhibition reaching or exceeding 20%?
Output line: NO
